Catalogue of molecules with associated GI50
# Tested on: UACC-62 melanoma
# Protocol Notes: NCI tumour cell line growth inhibition, 48 h

| Molecule | GI50 |
| --- | --- |
| COc1cc(/C=C2\CN(C)C/C(=C\c3cc(CN4CCCCC4)c(O)c(OC)c3)C2=O)cc(CN2CCCCC2)c1O | 7.2 µM |
| O=C(N/N=C/c1ccccc1O)C(=O)Nc1ccc(F)cc1 | 3.32 µM |
| C#Cc1c(C(N)=O)ncn1C1OC(COP(=O)(OCc2ccc([N+](=O)[O-])o2)N(C)CCCCCl)C(O)C1O (stereo not given) | > 100 µM |
| NS(=O)(=O)c1cccc(N=Cc2c(O)[nH]c3ccccc23)c1 | > 25 µM |
| C=C1C(=O)O[C@H]2[C@H]1CC/C(COC(=O)CSCC(=O)OC/C1=C/CC[C@@]3(C)O[C@H]3[C@H]3OC(=O)C(=C)[C@@H]3CC1)=C\CC[C@@]1(C)O[C@@H]21 | 1.69 µM |

---

# Tested on: IGROV1 ovarian
# Protocol Notes: NCI tumour cell line growth inhibition, 48 h
Where a SMILES comes first, the peptide text is derived from it. The star is where a group is joined. Cbz = O=C(OCc1ccccc1)*; OBn = c1ccc(CO*)cc1

| Molecule | Measurement Target | TGI |
| --- | --- | --- |
| O=C1Nc2cc([N+](=O)[O-])ccc2NC1/C(=N\Nc1ccccc1)C(O)c1cccc([N+](=O)[O-])c1 (stereo not drawn) | IGROV1 ovarian | > 100 µM |
| Cc1cc(=O)oc2cc(OCc3c(F)cccc3Cl)ccc12 | IGROV1 ovarian | > 100 µM |
| COc1cc(/C=C2\N=C(c3ccccc3)N(c3nc4c(OC)ccc(OC)c4s3)C2=O)cc(OC)c1OC | IGROV1 ovarian | > 100 µM |
| COC(=O)C(Cc1ccc(O)cc1)NC(=O)C(CC(=O)OCc1ccccc1)NC(=O)OCc1ccccc1 (stereo not drawn) (Cbz-Asp(OBn)-Tyr-OMe; configuration not given here) | IGROV1 ovarian | 31.1 µM |
| Cc1ccc2c(c1)NC(=O)CC(c1ccccc1)=N2 | IGROV1 ovarian | > 100 µM |
| O=C(N/N=C/c1ccc([N+](=O)[O-])cc1)c1ccc2nc(-c3ccc(Cl)cc3)[nH]c2c1 | IGROV1 ovarian | 11.4 µM |
| O=c1c(C=Nc2ccc([N+](=O)[O-])cc2)c(O)n(-c2ccccc2)c(=O)n1-c1ccccc1 | IGROV1 ovarian | > 100 µM |
| C=CCNC(=O)NC1=CSC2=NC(=O)C3(NN12)c1ccccc1-c1ccccc13 | IGROV1 ovarian | > 10 µM |

---

# System: SNB-75 CNS
# Protocol Notes: NCI tumour cell line growth inhibition, 48 h
Let's look at some molecules and their measured TGI.

| Structure As Smiles | Unit Abbreviation | TGI |
| --- | --- | --- |
| O=C(Cc1cccc(OC(F)(F)F)c1)Nc1ccc(CCCCc2nnc(NC(=O)Cc3ccccn3)s2)nn1 | µM | 38.6 |
| COc1ccc2c(c1)n([O-])c(C#N)c(N1CCN(c3ccc([N+](=O)[O-])cc3)CC1)[n+]2=O | µM | 66.2 |
| CCOC(=O)/C=C/C(C(=O)/C=C/c1ccc(O)c(OC)c1)=C(O)\C=C\c1ccc(O)c(OC)c1 | µM | 28.7 |
| c1ccc2c(c1)[nH]c1cnc3c4cccnc4[nH]c3c12 | µM | 32.6 |
